Data provenance is the supplement of paper PMC9233669.

# Test system: biotinyl-Phe-oxazolone
# Protocol details: self-aminoacylation, catalytic enhancement (BFO) (fold over background); higher = more active; k-Seq, kA / k0A0; sequences stand for … in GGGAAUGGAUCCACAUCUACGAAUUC…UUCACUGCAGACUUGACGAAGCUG
This sample holds only a part of the variants without activity.
Everything with self-aminoacylation lower than 2 is f; everything else, including exactly 2, is t.

Decide: self-aminoacylation of CUACUUCAUACAAUUGGUCUG [Fam1A.1 aminoacylation ribozyme variant] >= 2?
f

Decide: self-aminoacylation of AGUCAUCUAGGUCAUCGGGUG [Fam2.2 aminoacylation ribozyme variant] >= 2?
t

Decide: self-aminoacylation of AUUACCCUGGUCCUCGAGUGC [Fam2.1 aminoacylation ribozyme variant] >= 2?
t

Decide: self-aminoacylation of UUUCACCUAGGUCAUCGGGUC [Fam2.2 aminoacylation ribozyme variant] >= 2?
t

Decide: self-aminoacylation of AAGUUUGCUAGUAAUCGCAAG [Fam3.1 aminoacylation ribozyme variant] >= 2?
f
